Entries and their IC50 values follow.
Tested on: EJ
Experiment: Cytotoxicity against human EJ cells after 72 hrs by MTT assay
Type: functional, cell-based
Measured Quantity: IC50 (µM)

>>> print(df.to_string())
                         smiles_string  endpoint_unit  modifier  observed
0         COP(=O)(CNC1(C(=O)O)CCCC1)OC             µM         >       200
1  COP(=O)(CNC1(C(=O)O)CCCCCCCCCCC1)OC             µM         =       111
2       COP(=O)(CNC1(C(=O)O)CCCCCC1)OC             µM         =       151
3        COP(=O)(CNC1(C(=O)O)CCCCC1)OC             µM         =       116
4      COP(=O)(CNC1(C(=O)O)CCCCCCC1)OC             µM         =       115
